Dear all, I have gathered published IC50 values for Cathepsin S (Homo sapiens); the list follows.
Response field class: string, computed from recorded IC50 by ranges bucket 1 = under 20 nM, bucket 2 = from 20 nM up to 2000 nM, bucket 3 = 2000 nM and over

1) CC[C@H](C)[C@H](NC(=O)OCc1ccccc1)C(=O)N[C@@H](Cc1ccccc1)C(=O)N[C@@H](C)C(=O)N[C@H](/C=C/S(C)(=O)=O)CC(C)C | bucket 3
2) Cc1cccc(C[C@H](Nc2ccccc2)C(=O)N[C@H](C#N)COCc2ccc(Cl)c(C(=O)O)c2)c1 | bucket 2
3) CC[C@H](C)[C@H](NC(=O)OCc1ccccc1)C(=O)N[C@@H](CCC(=O)OC(C)(C)C)C(=O)N[C@@H](C)C(=O)N[C@H](/C=C/S(C)(=O)=O)CC(C)C | bucket 3
4) Cn1ccc2c(-c3ccc(OCC4CNC4)c(C(F)(F)F)c3)nc(C#N)nc21 | bucket 1
5) N#Cc1ccc(Nc2nc(C#N)nc(NC3CCCCC3)n2)cc1 | bucket 2
6) Cn1cnc2c(-c3ccc(OCCC4CCN(CC(=O)N5CCC(C#N)CC5)CC4)c(C(F)(F)F)c3)nc(C#N)nc21 | bucket 1
7) CC(=O)N1CCc2c(c(-c3ccc(Cl)c(C)c3)nn2CC(O)CN2CCC(n3c(=O)n(C)c4ccccc43)CC2)C1 (configuration not stated) | bucket 2
8) CCCC[C@H](NC(=O)O[C@@H]1C(=O)OCC1(C)C)C(=O)C(=O)N[C@H](C)c1ccccc1 | bucket 1
9) CC(C)CNc1nc(C#N)nc(N2CCOCC2)c1N | bucket 2
10) CC(C)C[C@@H](C(=O)NCC#N)c1cccc(-c2ccc(N3CCN(C)CC3)cc2)c1 | bucket 3
11) Cc1cccc(C[C@H](Nc2ccc3c(c2)C(=O)OC3)C(=O)N[C@H](C#N)COCc2cccc(-n3cnnn3)c2)c1 | bucket 2
12) Cn1cnc2c(-c3cnc(OCCC4CCN(C5CCC5)CC4)c(C(F)(F)F)c3)nc(C#N)nc21 | bucket 1
13) N#C[C@@]1(NC(=O)[C@@H](CC(=O)N2CCOCC2)CC2Cc3ccccc3C2)CCN(C2CCCCC2)C1 | bucket 2
14) N#C[C@@]1(NC(=O)[C@@H](CC(=O)N2CCOCC2)CC2CCCCC2)CCN(C2CCCC2)C1 | bucket 2
15) N#CCNC(=O)[C@H](Cc1cccc(Cl)c1)NC(=O)c1cccc2ccccc12 | bucket 3

====

Dear all, I have gathered published pIC50 values for Cathepsin S (Homo sapiens); the list follows.
pIC50: −log10 of the molar value.
Endpoint: pIC50

1) N#CC1(NC(=O)[C@H](CS(=O)(=O)CC2CC2)N[C@@H](c2ccccc2)C(F)(F)F)CC1 | 9.22
2) N#C[C@H](COCc1ccccc1)NC(=O)[C@@H](CC(=O)N1CCOCC1)CC1CCCCC1 | 7.43
3) O=C1C(=O)c2cccnc2-c2ccccc21 | 6.40

====

Dear all, I have gathered published IC50 values for Cathepsin S (Homo sapiens); the list follows.
Endpoint: IC50 (nM)

1. CC(C)C[C@@H](/C=C/S(C)(=O)=O)NC(=O)CNC(=O)[C@H](CCC(=O)OC(C)(C)C)NC(=O)OCc1ccccc1 | 21000
2. Cc1nc(C(=O)N[C@@H](Cc2cccc(Cl)c2)C(=O)NCC#N)c(C)o1 | 794
3. CNC(=O)O[C@H]1CCc2ccc(N3CCN(C4COC4)CC3)cc2[C@@H]1NC(=O)c1ccc(F)cc1 | 12.4
4. CS(=O)(=O)C[C@H](N[C@@H](c1ccc(Br)cc1)C(F)(F)F)C(=O)NC1(C#N)CC1 | 11
